# SUBJECT OF TEST: T1, cynomolgus monkey B7-H7 (soluble analyte in SPR) (cynomolgus monkey)
# T1 sequence: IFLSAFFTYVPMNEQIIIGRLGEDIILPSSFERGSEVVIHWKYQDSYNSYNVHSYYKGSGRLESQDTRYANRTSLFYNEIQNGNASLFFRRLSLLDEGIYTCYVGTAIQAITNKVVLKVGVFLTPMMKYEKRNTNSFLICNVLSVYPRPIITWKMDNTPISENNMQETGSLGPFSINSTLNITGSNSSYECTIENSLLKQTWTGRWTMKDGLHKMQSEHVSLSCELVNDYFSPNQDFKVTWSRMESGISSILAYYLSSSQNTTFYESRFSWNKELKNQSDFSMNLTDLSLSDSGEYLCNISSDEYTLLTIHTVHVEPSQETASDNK
# PROTOCOL TEXT: SPR (Biacore), antibody captured by anti-Fc on CM5 chip, B7-H7 injected, 37 C
Below, each entry is listed with its recorded Kd.
Use nM as the unit, but write only the number.

// known answers, use as guide
{"columns": ["BINDER", "NUMERIC VALUE"],
 "data": [
  ["anti-B7-H7 antibody 5F7 (antibody, V domains shown) VH: QEQLQQPGTELVKPGASVKISCKASGYTFSSYSMHWVKLTPGQGLEWMGTIYPGNENTSYNQKFKGKATLTADKSSSTAYMQLSSLTSEDSAVYYCARGGYYFDYWGQGTTLTVSS VL: DIVMTQSHKFLSTSVGDRVSITCKASQDVSTAVAWYQQKPGQSPKLLIYWASTRHTGVSDRFTGSGSGTDFTLTISSVQAEDLALYYCQQHFDIPYWFGGGTKLEIK", 1.2],
  ["anti-B7-H7 antibody 3H6 (antibody, V domains shown) VH: EVQLQQSGPELVKPGASVKISCKTSGYTFTEYTMHWVKQSHGKSLEWIGGINPNNGGAPYNQKFKGKATLTVDKSSSTAYMELRSLTSEDSAVYYCARGGYYFDYWGQGTTLTVSS VL: DIVMTQSHKFMSTSVGDRVSITCKASQDVSTAVAWYQQKSGQSPKLLIYWASTRHTGVPDRFTGSGSGTDYTLTISSVQAEDLALYYCQQHYDTPFTFGGGTKLEIK", 6.9]
]}

Switching to the query record.
Kd lookup needed for anti-B7-H7 antibody 28F5 (antibody, V domains shown) VH: QVQLKESGPGLVAPSQSLSITCTVSGFSLTGYGVNWVRQPPGKGLEWLGVIWGDGSTDYNSVLKSRLSISKDNSKSQVFLKMNSLQTDDTARYYCAREATEYLYWYFDVWGAGTTVTVSS VL: DIVLTQSPASLAVSLGQRATISCRASESVEYYGSSLMQWYQQKPGQPPKLLIFAASNVESGVPPRFSGSGSGTDFNLNIHPVDEDDIAMYFCQQGRRVPWTFGGGTKLEIK , thanks. 4.5
